Encapsulation Efficiency for assorted molecules
Experiment: Encapsulation efficiency of lipid nanoparticles, Quant-it Ribogreen RNA assay
Format: physicochemical
Details: LNP of lipid/DSPC/cholesterol/PEG-lipid 50:10:38.5:1.5 encapsulating hEPO mRNA
Method: Briefly, a cationic lipid provided herein, DSPC, cholesterol, and PEG-lipid were solubilized in ethanol at a molar ratio of 50:10:38.5:1.5, and mRNA were diluted in 10 to 50 mM citrate buffer, pH=4. […] Lipid nanoparticle size were determined by dynamic light scattering using a Malvern Zetasizer Nano ZS (Malvern UK) using a […] backscatter detection mode. […]
Entry rule: numbers only, all in %.

See these solved cases before continuing.
molecule: CCCCCCCCCCCC(=O)OCCCCCN(CCN(CCO)CCCCCNC(=O)CC(CCCCCCCC)CCCCCCCC)C1CCCCC1
quantitative-result: 95.1
//
molecule: CCCCCCCCC(CCCCCC)CNC(=O)CCCCCN(CCO)CCN(CCCCC(COC(=O)CCCCCCC)COC(=O)CCCCCCC)C1CCC1 (stereo not shown)
quantitative-result: 88.64

(Q) Returns the measured Encapsulation Efficiency for the input molecule. Input: `CCCCCCCC(=O)OCC(CCCCN(CCO)CCCCN(CCCCC(COC(=O)CCCCCCC)COC(=O)CCCCCCC)C1CCC1)COC(=O)CCCCCCC`
(A) 94.13

(Q) Returns the measured Encapsulation Efficiency for the input molecule. Input: CCCCCCCCC(CCCCCC)CNC(=O)CCCCCN(CCCCCO)CCN(CCCCC(COC(=O)CCCCCCC)COC(=O)CCCCCCC)C1CCCCC1 (stereo not shown)
(A) 87.79

(Q) Returns the measured Encapsulation Efficiency for the input molecule. Input: `CCCCCCCCCCCOC(=O)CCCCCN(CCN(CCO)CCCCCCC(=O)OCC(CCCCCCCC)CCCCCCCC)C1CCCCC1`
(A) 89.6

(Q) Returns the measured Encapsulation Efficiency for the input molecule. Input: CCCCCCCCC(CCCCCC)CNC(=O)CCCCCCCN(CCO)CCN(CCCCC(COC(=O)CCCCCCC)COC(=O)CCCCCCC)C1CCCCCCC1 (stereo not shown)
(A) 90.80

(Q) Returns the measured Encapsulation Efficiency for the input molecule. Input: CCCCCCCCC(CCCCCCCC)COC(=O)CCCCCN(CCO)CCN(CCCCCC(=O)OCC(CCCCCCCC)CCCCCCCC)C1CCC(C(F)(F)F)CC1 (stereo not shown)
(A) 93.5

(Q) Returns the measured Encapsulation Efficiency for the input molecule. Input: CCCCCCCCC(CCCCCCCC)COC(=O)CCCCCN(C)CCN(CCCCCC(=O)OCC(CCCCCCCC)CCCCCCCC)C1CCC(O)CC1 (stereo not shown)
(A) 97.0

(Q) Returns the measured Encapsulation Efficiency for the input molecule. Input: `CCCCCCCCC(CCCCCCCC)CNC(=O)CCCCCN(CCO)CCN(CCCCCC(=O)OCC(CCCCCCCC)CCCCCCCC)C1CCCCC1`
(A) 95.5

(Q) Returns the measured Encapsulation Efficiency for the input molecule. Input: CCCCCCCCC(CCCCCC)COC(=O)CCCCCN(CC=C(C)C)CCN(CCO)CCCCC(COC(=O)CCCCCCC)COC(=O)CCCCCCC (stereo not shown)
(A) 90.40

(Q) Returns the measured Encapsulation Efficiency for the input molecule. Input: CCCCCCCCC(CCCCCC)CC(=O)OCCCCCN(CCO)CCN(CCCCCN(C)C(=O)CC(CCCCCC)CCCCCCCC)C1CCCCCC1 (stereo not shown)
(A) 88.17

(Q) Returns the measured Encapsulation Efficiency for the input molecule. Input: CCCCCCCCC(CCCCCC)CNC(=O)CCCCCN(CCCCCO)CCN(CCCCC(COC(=O)CCCCCCC)COC(=O)CCCCCCC)C1CCCC1 (stereo not shown)
(A) 85.65

(Q) Returns the measured Encapsulation Efficiency for the input molecule. Input: `CCCCCCCCCCCC(=O)OCCCCCN(CCN(CCO)CCCCCOC(=O)CC(CCCCCCCC)CCCCCCCC)C1CCCC1`
(A) 92.84

====

assay: Lipid clearance study: lipid remaining in liver tissue by LC-MS/MS; conditions: 48 h; ICR female mice, 0.5 mg/kg i.v. bolus dose mRNA
measure: % Dose Remaining in Liver Tissue
Phrase the answer as number then unit, nothing more needed.

smi: CCCCCCCCCCCOC(=O)CCCCCN(CCN(CCO)CCCCCOC(=O)N(CCCCCCCC)CCCCCCCC)C1CCCCC1
result: 14.08%

smi: CCCCCCCCC(CCCCCCCC)CC(=O)NCCCCCN(CCN(CCO)CCCCCOC(=O)CC(CCCCCCCC)CCCCCCCC)C1CCCCCC1
result: 50.83%

smi: CCCCCCCC(=O)OCC(CCCCN(CCO)CCN(CCCCC(COC(=O)CCCCCCC)COC(=O)CCCCCCC)C1CCC1)COC(=O)CCCCCCC
result: 0.00%

smi: CCCCCCCCCCCOC(=O)CCCCCN(CCN(CCO)CCCCCC(=O)OCC(CCCCCCCC)CCCCCCCC)C1CCCCC1
result: 24.38%

smi: CCCCCCCCC(CCCCCCCC)CNC(=O)CCCCCN1CCC(N(CCO)CCCCC(COC(=O)CCCCCCC)COC(=O)CCCCCCC)CC1
result: 0.17%

Moving on to the next compound.
(Q) Returns the measured % Dose Remaining in Liver Tissue for the input compound. Input: `CCCCCCCCC(CCCCCCCC)COC(=O)CCCCCN(CCCCN(CCO)CCCCC(COC(=O)CCCCCCC)COC(=O)CCCCCCC)C1CCC1`
(A) 0.52%

====

test: Lipid nanoparticle size and polydispersity by dynamic light scattering; type: physicochemical; conditions: LNP of lipid/DSPC/cholesterol/PEG-lipid 50:10:38.5:1.5 encapsulating hEPO mRNA
measure: size (nm)
Entry rule: numbers only, all in nm.

See these solved cases before continuing.
compound: CCCCCCCCCCCOC(=O)CCCCCN(CCN(CCO)CCCCCC(=O)OCC(CCCCCCCC)CCCCCCCC)C1CCC1
size (nm): 67.63

compound: CCCCCCCC(=O)OCC(CCCCN(CC=C(C)C)CCN(CCO)CCCCC(COC(=O)CCCCCCC)COC(=O)CCCCCCC)COC(=O)CCCCCCC
size (nm): 82.68

compound: CCCCCCCCC(CCCCCC)CNC(=O)CCN(CCO)CCN(CCCCC(COC(=O)CCCCCCC)COC(=O)CCCCCCC)C1CCCCC1 (stereo not drawn)
size (nm): 112.6

compound: CCCCCCCC(=O)OCC(CCCCN(CCO)CCCCN(CCCCC(COC(=O)CCCCCCC)COC(=O)CCCCCCC)C(C)C)COC(=O)CCCCCCC
size (nm): 87.22

compound: CCCCC/C=C\CCCC(CCC/C=C\CCCCC)COC(=O)CCCCCN(CCO)CCN(CCCCCC(=O)OCC(CCC/C=C\CCCCC)CCC/C=C\CCCCC)C1CCCCC1
size (nm): 56.64

(Q) Returns the measured size (nm) for the input compound. Input: `CCCCCCCCC(CCCCCCCC)CNC(=O)CCCCCN(CCO)CCN(CCCCCC(=O)NCC(CCCCCCCC)CCCCCCCC)C1CCCCCC1`
(A) 60.06

====

Experiment: Lipid nanoparticle size and polydispersity by dynamic light scattering
Type: physicochemical
Conditions: LNP of lipid/DSPC/cholesterol/PEG-lipid 50:10:38.5:1.5 encapsulating hEPO mRNA
Experimental: Briefly, a cationic lipid provided herein, DSPC, cholesterol, and PEG-lipid were solubilized in ethanol at a molar ratio of 50:10:38.5:1.5, and mRNA were diluted in 10 to 50 mM citrate buffer, pH=4. […] Lipid nanoparticle size were determined by dynamic light scattering using a Malvern Zetasizer Nano ZS (Malvern UK) using a […] backscatter detection mode. […]
polydispersity for assorted compounds
// keep it numeric: no unit symbol after the value

See these solved cases before continuing.
compound: CCCCCCCCCOC(=O)CCCCCCCN(CCO)C1CCN(CCCCCCCC(=O)OC(CCCCCCCC)CCCCCCCC)CC1 [Compound 176]
polydispersity: 0.123
//
compound: CCCCCCCCC(CCCCCCCC)COC(=O)CCCCCN(CCO)CCN(CC=C(C)C)CCOCCC(=O)OCC(CCCCCCCC)CCCCCCCC [Compound 123]
polydispersity: 0.152
//
compound: CCCCCCCC(=O)OCC(CCCCN(CCO)CCN(CCCCC(COC(=O)CCCCCCC)COC(=O)CCCCCCC)C1CCCCC1)COC(=O)CCCCCCC [Compound 141]
polydispersity: 0.128
//
compound: CCCCCCCCCCCOC(=O)CCCCCN(CCN(CCO)CCOCCC(=O)OCC(CCCCCCCC)CCCCCCCC)C1CCC1 [Compound 114]
polydispersity: 0.044
//
compound: CCCCCCCCCCCCCCOCC(CN(CCN(CCO)CCCCCC(=O)OCC(CCCCCCCC)CCCCCCCC)C1CCC1)OCCCCCCCC (stereo not shown) [Compound 20]
polydispersity: 0.015

(Q) Returns the measured polydispersity for the input compound. Input: CCCCCCCCCCCOC(=O)CCCCCN(CCN(CCO)CCCCCC(=O)OCC(CCCCCCCC)CCCCCCCC)C1CC(F)(F)C1 [Compound 50]
(A) 0.235

(Q) Returns the measured polydispersity for the input compound. Input: CCCCCCCCC(CCCCCCCC)COC(=O)CCCCCN(CCO)CCN(CCCCCC(=O)OCC(CCCCCCCC)CCCCCCCC)CCC(C)C [Compound 118]
(A) 0.121
